Test system: M14 melanoma
Assay: NCI-60 one-dose screen, 48 h (100 = growth as untreated, 0 = no growth, -100 = all killed)
Conditions: 10 µM unless noted
Method: Growth inhibition of the M14 human tumor cell line is measured as a screen for anti-cancer activity. Cells are grown in 96 well plates and exposed to the test compound for 48 hours. Compounds are tested at a single concentration, which is 10^-5 M for most compounds. The reported endpoint is percent growth (GI% or GIPRCNT), where numbers from 0 - 100% represent growth inhibition, and numbers from -100% - 0 represent cell death. For example, a value of 40 represents 60% growth inhibition. […]
The panel holds about 83,000 compounds, 20% with a hit somewhere; the sample as a whole holds those more often.
growth listing for selected compounds.
Express it in %; write the number only.

>>> meas_value("CCCn1c(=S)sc2c(Cl)nc(C)nc21")
101
>>> meas_value("Nc1nc(-c2ccccc2)cs1")
97.2
>>> meas_value("CCOC(=O)CC(C#N)(CC(=O)OCC)C(=O)OCC")
102
>>> meas_value("COc1cc(-n2nc(C(=O)Nc3ccc(C(=O)O)cc3)nc2-c2ccccc2)cc(OC)c1OC")
100
>>> meas_value("NC(=S)NN=C1CCCCC1")
81.2

Query string: Form field: reported growth of `CCN(Cc1ccc(CN(CC)C(=O)C(Cl)(Cl)Cl)cc1)C(=O)C(Cl)(Cl)Cl`
Result string: 89.9

Values from PubChem BioAssay (NCI)
